Tested on: induction of TAT by dexamethasone in HepG2 cells
Assay: HepG2 tyrosine aminotransferase (TAT) assay
Assay type: cell-based, human
Details: HepG2 cells, challenge of 100 nM dexamethasone; Ki from IC50 by Cheng and Prusoff equation
Experimental Readout: Ki

I have this molecule here, Cc1ccnc(C(=O)[C@]23Cc4cnn(-c5ccc(F)cc5)c4C=C2CCN(S(=O)(=O)c2cn(C)cn2)C3)c1 [Example 11V] , and I need its recorded Ki.
20 to 100 nM

I have this molecule here, CCc1ccnc(C(=O)[C@]23Cc4cnn(-c5ccc(F)cc5)c4C=C2CCN(S(=O)(=O)c2cccc(C#N)c2)C3)c1 [Example 11AU] , and I need its recorded Ki.
< 20 nM

I have this molecule here, COc1ccc(S(=O)(=O)N2CCC3=Cc4c(cnn4-c4ccc(F)cc4)C[C@]3(C(=O)c3ccccn3)C2)cc1C [Example 11B] , and I need its recorded Ki.
< 20 nM

###

Target: human recombinant GR (Homo sapiens, UniProt P04150)
Construct: purchased PanVera P2812
Sequence (P04150 1-777): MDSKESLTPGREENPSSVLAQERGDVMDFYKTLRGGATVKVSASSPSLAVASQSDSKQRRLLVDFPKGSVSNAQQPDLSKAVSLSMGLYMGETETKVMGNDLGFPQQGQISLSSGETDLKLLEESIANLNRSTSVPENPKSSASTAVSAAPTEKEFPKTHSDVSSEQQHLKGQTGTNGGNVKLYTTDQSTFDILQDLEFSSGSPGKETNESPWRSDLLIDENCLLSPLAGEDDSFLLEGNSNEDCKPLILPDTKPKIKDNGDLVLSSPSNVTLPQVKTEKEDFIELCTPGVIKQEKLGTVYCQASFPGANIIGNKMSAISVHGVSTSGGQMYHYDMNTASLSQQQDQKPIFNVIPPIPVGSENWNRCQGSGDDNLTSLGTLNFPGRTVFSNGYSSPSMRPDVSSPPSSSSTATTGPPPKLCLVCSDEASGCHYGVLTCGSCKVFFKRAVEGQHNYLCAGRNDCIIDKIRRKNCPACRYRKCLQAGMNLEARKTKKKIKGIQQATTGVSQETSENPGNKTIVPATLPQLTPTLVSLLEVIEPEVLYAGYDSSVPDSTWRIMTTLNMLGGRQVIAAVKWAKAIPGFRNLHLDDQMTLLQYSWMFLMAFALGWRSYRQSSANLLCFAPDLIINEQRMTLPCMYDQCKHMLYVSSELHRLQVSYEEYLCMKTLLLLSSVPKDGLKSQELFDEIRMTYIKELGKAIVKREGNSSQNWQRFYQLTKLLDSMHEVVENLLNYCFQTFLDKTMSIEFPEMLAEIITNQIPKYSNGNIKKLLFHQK
Test: Human glucocorticoid receptor (GR) fluorescence polarisation (FP) binding assay
Conditions: human recombinant GR, fluorescence polarisation binding assay; read-out: GR binding
Could you please report measured Ki for the items listed next?

I have this molecule here, O=C(c1ccccn1)[C@]12Cc3cnn(-c4ccccc4)c3C=C1CCN(S(=O)(=O)c1cccc(C(F)(F)F)c1)C2 [Example 11AZ] , and I need its recorded Ki.
< 0.5 nM

I have this molecule here, Cc1ccnc(C(=O)[C@]23Cc4cnn(-c5ccc(F)cc5)c4C=C2CCN(S(=O)(=O)c2cnn(C)c2)C3)c1 [Example 11T] , and I need its recorded Ki.
< 0.5 nM

I have this molecule here, Cc1ccc(S(=O)(=O)N2CCC3=Cc4c(cnn4-c4ccc(F)cc4)C[C@]3(C(=O)c3cscn3)C2)cc1 [Example 11K] , and I need its recorded Ki.
< 0.5 nM

I have this molecule here, CCCn1ncc(S(=O)(=O)N2CCC3=Cc4c(cnn4-c4ccc(F)cc4)C[C@]3(C(=O)c3cc(C(F)(F)F)ccn3)C2)n1 (single isomer, unassigned) [Example 11DC] , and I need its recorded Ki.
0.5 to 1 nM

I have this molecule here, CCc1ccnc(C(=O)[C@]23Cc4cnn(-c5ccc(F)cc5)c4C=C2CCN(S(=O)(=O)c2cccc(C#N)c2)C3)c1 [Example 11AU] , and I need its recorded Ki.
< 0.5 nM

I have this molecule here, Cc1ccnc(C(=O)[C@]23Cc4cnn(-c5ccc(F)cc5)c4C=C2CCN(S(=O)(=O)c2ccnc(C(F)(F)F)c2)C3)c1 [Example 11BB] , and I need its recorded Ki.
< 0.5 nM

I have this molecule here, Cc1ccnc(C(=O)[C@]23Cc4cnn(-c5ccc(F)cc5)c4C=C2CCN(S(=O)(=O)c2cn[nH]c2C)C3)c1 [Example 11BD] , and I need its recorded Ki.
< 0.5 nM

I have this molecule here, N#Cc1cccc(S(=O)(=O)N2CCC3=Cc4c(cnn4-c4ccc(F)cc4)C[C@]3(C(=O)c3cc(C(F)(F)F)ccn3)C2)c1 [Example 11BL] , and I need its recorded Ki.
< 0.5 nM

I have this molecule here, CCCn1cc(S(=O)(=O)N2CCC3=Cc4c(cnn4-c4ccc(F)cc4)C[C@]3(C(=O)c3cc(C(F)(F)F)ccn3)C2)cn1 [Example 11CX] , and I need its recorded Ki.
< 0.5 nM

I have this molecule here, Cc1cc(C)cc(S(=O)(=O)N2CCC3=Cc4c(cnn4-c4ccc(F)cc4)C[C@]3(C(=O)c3ccccn3)C2)c1 [Example 11N] , and I need its recorded Ki.
< 0.5 nM

I have this molecule here, O=C(c1nccs1)[C@]12Cc3cnn(-c4ccc(F)cc4)c3C=C1CCN(S(=O)(=O)Cc1cccc(F)c1)C2 [Example 2A] , and I need its recorded Ki.
< 0.5 nM

I have this molecule here, CCCn1nncc1S(=O)(=O)N1CCC2=Cc3c(cnn3-c3ccc(F)cc3)C[C@]2(C(=O)c2cscn2)C1 [Example 11CR] , and I need its recorded Ki.
0.5 to 1 nM

I have this molecule here, CCn1nccc1S(=O)(=O)N1CCC2=Cc3c(cnn3-c3ccc(F)cc3)C[C@]2(C(=O)c2nccs2)C1 [Example 12W] , and I need its recorded Ki.
> 1 nM

I have this molecule here, O=C(c1nccs1)[C@]12Cc3cnn(-c4ccc(F)cc4)c3C=C1CCN(S(=O)(=O)c1cncc(N3CCCC3)c1)C2 [Example 7A] , and I need its recorded Ki.
< 0.5 nM

I have this molecule here, O=C(c1ccccn1)[C@]12Cc3cnn(-c4ccc(F)c(F)c4)c3C=C1CCN(S(=O)(=O)c1ccc(Cl)c(Cl)c1)C2 [Example 15C] , and I need its recorded Ki.
< 0.5 nM

I have this molecule here, Cc1ccc(S(=O)(=O)N2CCC3=Cc4c(cnn4-c4ccc(F)cc4)C[C@]3(C(=O)c3ccccn3)C2)cc1Cl [Example 11BG] , and I need its recorded Ki.
< 0.5 nM

I have this molecule here, CCCn1cc(S(=O)(=O)N2CCC3=Cc4c(cnn4-c4ccc(F)cc4)C[C@]3(C(=O)c3cscn3)C2)nn1 [Example 11CS] , and I need its recorded Ki.
< 0.5 nM

I have this molecule here, Cc1cnc(C(=O)[C@]23Cc4cnn(-c5ccc(F)cc5)c4C=C2CCN(S(=O)(=O)c2cnn(C)c2)C3)s1 [Example 12T] , and I need its recorded Ki.
< 0.5 nM

I have this molecule here, COc1ccc(S(=O)(=O)N2CCC3=Cc4c(cnn4-c4ccc(F)cc4)C[C@]3(C(=O)c3ccccn3)C2)cc1C [Example 11B] , and I need its recorded Ki.
< 0.5 nM

I have this molecule here, Cc1cccc(S(=O)(=O)N2CCC3=Cc4c(cnn4-c4ccc(F)cc4)C[C@]3(C(=O)c3ccccn3)C2)n1 [Example 11O] , and I need its recorded Ki.
< 0.5 nM

I have this molecule here, Cc1ccnc(C(=O)[C@]23Cc4cnn(-c5ccc(F)cc5)c4C=C2CCN(S(=O)(=O)c2cccc(C(=O)O)c2)C3)c1 [Example 11AW] , and I need its recorded Ki.
< 0.5 nM

I have this molecule here, Cc1cnc(C(=O)[C@]23Cc4cnn(-c5ccc(F)cc5)c4C=C2CCN(S(=O)(=O)c2ccc(Cl)c(Cl)c2)C3)s1 [Example 12O] , and I need its recorded Ki.
< 0.5 nM

I have this molecule here, O=C(c1nccs1)[C@]12Cc3cnn(-c4ccc(F)cc4)c3C=C1CCN(S(=O)(=O)c1ccc(Cl)c(Cl)c1)C2 [Example 12N] , and I need its recorded Ki.
0.5 to 1 nM

I have this molecule here, O=C(c1ccccn1)[C@]12Cc3cnn(-c4ccc(F)cc4)c3C=C1CCN(S(=O)(=O)c1ccc(Cl)c(C(F)(F)F)c1)C2 [Example 11BF] , and I need its recorded Ki.
< 0.5 nM

I have this molecule here, Cc1ccnc(C(=O)[C@]23Cc4cnn(-c5ccc(F)cc5)c4C=C2CCN(S(=O)(=O)c2cnn(C)c2C)C3)c1 [Example 11AI] , and I need its recorded Ki.
< 0.5 nM

I have this molecule here, Cc1ccnc(C(=O)[C@]23Cc4cnn(-c5ccc(F)cc5)c4C=C2CCN(S(=O)(=O)c2ccc(F)c(C)c2)C3)c1 [Example 11AL] , and I need its recorded Ki.
< 0.5 nM

###

Target: human recombinant GR (Homo sapiens)
Construct: purchased PanVera P2812
Assay: Human glucocorticoid receptor (GR) fluorescence polarisation (FP) binding assay
Conditions: human recombinant GR, fluorescence polarisation binding assay; read-out: GR binding
pKi: −log10 of the molar value.
Could you please report measured pKi for the items listed next?

I have this molecule here, Cn1ccc(S(=O)(=O)N2CCC3=Cc4c(cnn4-c4ccc(Cl)cc4)C[C@]3(C(=O)c3cc(C(F)(F)F)ccn3)C2)n1 [Example 11BR] , and I need its recorded pKi.
9.00 to 9.30

I have this molecule here, Cc1ccc(S(=O)(=O)N2CCC3=Cc4c(cnn4-c4ccc(F)cc4)C[C@]3(C(=O)c3nccn3C)C2)cc1 , and I need its recorded pKi.
9.00 to 9.30

I have this molecule here, Cc1c(S(=O)(=O)N2CCC3=Cc4c(cnn4-c4ccc(F)cc4)C[C@]3(C(=O)c3cc(C(F)(F)F)ccn3)C2)cnn1C [Example 11BN] , and I need its recorded pKi.
> 9.30

I have this molecule here, O=C(c1ccccn1)[C@]12Cc3cnn(-c4ccc(F)cc4)c3C=C1CCN(S(=O)(=O)c1ccc(N3CCCC3)nc1)C2 , and I need its recorded pKi.
> 9.30

I have this molecule here, O=C(c1cc(C(F)(F)F)ccn1)[C@]12Cc3cnn(-c4ccc(F)cc4)c3C=C1CCN(S(=O)(=O)c1c[nH]cn1)C2 , and I need its recorded pKi.
< 9.00

I have this molecule here, CS(=O)(=O)c1cccc(S(=O)(=O)N2CCC3=Cc4c(cnn4-c4ccc(F)cc4)C[C@]3(C(=O)c3ccccn3)C2)c1 [Example 11Y] , and I need its recorded pKi.
> 9.30

I have this molecule here, O=C(c1ccccn1)[C@]12Cc3cnn(-c4ccc(F)cc4)c3C=C1CCN(S(=O)(=O)C1CCOCC1)C2 , and I need its recorded pKi.
< 9.00

I have this molecule here, Cc1cccc(S(=O)(=O)N2CCC3=Cc4c(cnn4-c4ccc(F)cc4)C[C@]3(C(=O)c3cccc(C)n3)C2)c1 [Example 12H] , and I need its recorded pKi.
> 9.30

I have this molecule here, CC(C)n1ncc(S(=O)(=O)N2CCC3=Cc4c(cnn4-c4ccc(F)cc4)C[C@]3(C(=O)c3ccccn3)C2)n1 [Example 11CT] , and I need its recorded pKi.
> 9.30

I have this molecule here, Cc1ccnc(C(=O)[C@]23Cc4cnn(-c5ccc(F)cc5)c4C=C2CCN(S(=O)(=O)c2ccc(C(F)(F)F)c(F)c2)C3)c1 [Example 11AS] , and I need its recorded pKi.
> 9.30

I have this molecule here, Cc1cccc(S(=O)(=O)N2CCC3=Cc4c(cnn4-c4ccc(F)cc4)C[C@]3(C(=O)c3ncccn3)C2)c1 , and I need its recorded pKi.
> 9.30

I have this molecule here, O=C(c1ccccn1)[C@]12Cc3cnn(-c4ccc(F)cc4)c3C=C1CCN(S(=O)(=O)c1ccc(Cl)c(F)c1)C2 , and I need its recorded pKi.
> 9.30

I have this molecule here, Cc1ccnc(C(=O)[C@]23Cc4cnn(-c5ccc(F)cc5)c4C=C2CCN(S(=O)(=O)c2ccnn2C)C3)c1 [Example 11AJ] , and I need its recorded pKi.
> 9.30

Values from patent US12226412B2
